Consider the following compounds and their measured TGI readings.
System: MCF7 breast
assay_details: NCI tumour cell line growth inhibition, 48 h

Examples with their reported TGI follow.
compound	TGI
CCCCSC1=N/C(=C\c2ccccc2O)C(Cl)=N1	> 100 µM
C[C@@H](c1ccccc1)N(CC#N)[C@H]1CCC[C@]1(O)/C=C/c1ccc2c(c1)OCO2	11.5 µM
COc1ccc(S(=O)(=O)NCCCNc2nccc(-c3c(-c4ccc(F)cc4)nc4sccn34)n2)cc1	> 100 µM
ClCc1ccc(Cn2cnc3nc(Cl)nc(Cl)c32)cc1	2.36 µM
O=C1Cc2c([nH]c3c(Br)cccc23)-c2ccccc2N1	> 100 µM

We now examine a further compound.
Requested field: TGI. Item: CC(=O)CC(=O)N1CCOC1=O
> 10 µM

* * *

Tested on: SF-295 CNS
assay_details: NCI tumour cell line growth inhibition, 48 h; in the data active means GI50 below about 0.43 µM; inactive means the rest
Bench note: report the call from active, inactive

Solved entries:
1. Oc1ccc(/C=N/Nc2nnc(N/N=C/c3ccc(O)cc3O)c3ccccc23)c(O)c1 active
2. CCNc1nc(-c2ccc(Cl)c(OC)c2)c(-c2ccnc(NCCNS(=O)(=O)c3ccc(Cl)cc3)n2)s1 inactive

Switching to the query record.
Each molecule tested received a call. Report the one for N#Cc1c(N/N=C/c2c(Cl)cccc2Cl)nc(N)nc1N1CCCC1 .
inactive

* * *

# TGI values compiled below
Test system: ACHN renal
assay_details: NCI tumour cell line growth inhibition, 48 h

Take a look at these entries with their results.
molecule	value
O=C(O)C12C3C4C1C1C2C3C41I (stereo not drawn)	> 100 µM
Cc1cccc(Cc2cnc(NC(=O)CCCOc3ccc(Cl)cc3)s2)c1	> 100 µM

Now turn to the next molecule.
Which TGI value belongs to CCOC(=O)c1c(SCCN(CC)CC)n(-c2ccccc2)c(=S)n(-c2ccccc2)c1=O ?
3.2 µM

* * *

System: SF-268 CNS
assay_details: NCI tumour cell line growth inhibition, 48 h
Form field: TGI (one value per entry).

compound	value
COc1ccc(C[C@H](N)C(=O)N[C@@H]2[C@@H](CO)OC(n3cnc4c(N(C)C)ncnc43)[C@@H]2O)cc1 (stereo partly specified)	1.18 µM

Would you kindly share the measured TGI for COc1ccc(/[N+]([O-])=C/c2ccccc2OC(=S)S)cc1 ?
> 100 µM

Fill blank: measured TGI of the compound O=C1COc2c(CCNCCN(C(=O)CCNCCc3ccc(Cl)c(Cl)c3)C3CCCCC3)ccc(O)c2N1 is ____.
30.3 µM

Look up TGI: COc1ccc(S(=O)(=O)NCCCNc2nccc(-c3c(-c4ccc(F)cc4)nc4sccn34)n2)cc1
> 100 µM

Query: TGI; subject: CCCNc1ncnc2c1cnn2C
> 100 µM

Fill blank: measured TGI of the compound O=C(CO[N+](=O)[O-])OCC(=O)c1ccccc1 is ____.
> 100 µM

* * *

Test system: EKVX NSCLC
assay_details: NCI tumour cell line growth inhibition, 48 h
Listed below: TGI values for each entry.
Answer with a number only, understood to be in µM.

Please review the following examples before continuing.
compound	quantity_kind	value
O=C1COc2c(CCNCCN(C(=O)CCNCCc3ccc(Cl)c(Cl)c3)C3CCCCC3)ccc(O)c2N1	TGI	30
O=C(Nc1nc2ccc([N+](=O)[O-])cc2s1)c1cc([N+](=O)[O-])ccc1Cl	TGI	8.55
CCN(CC)CCCNc1nnc(C)c2[nH]c3ccccc3c12	TGI	63.4

Record request: TGI value, item CC(=O)Nc1ccc(C(=O)COc2cccc(/C=C3\CCc4ccccc4C3=O)c2)cc1
68.7

// TGI lookup, key: Nc1ccc2ncc(Nc3ccc(Cl)c(Cl)c3)nc2c1
88.9

Endpoint output: TGI of CCCCN1/C(=N/Nc2n[nH]c(=O)c3ccccc23)SCC1c1ccc(Cl)cc1 (stereo unspecified) . Value?
41.2

Value lookup for TGI; key = O=C(/C=C/c1ccc(OCC(=O)N2CCN(c3ccccc3)CC2)cc1)c1ccccc1
98.9

Look up TGI: O=C(c1ccccc1)c1ccc(N2C(=O)C3C4c5ccccc5C(/C=C/C(=O)c5ccccn5)(c5ccccc54)C3C2=O)cc1 (stereo unspecified)
39

Given the entry O=C(Nc1cccc(C(F)(F)F)c1)Nc1cc(S(=O)(=O)NC2CC2)ccc1-c1ccsc1 , report its measured TGI.
12.2
